Listing of recorded melting point by entry.

Field: example entries. Status: answers known.
[
  {
    "MOL": "CCCCCCCCCCCCc1c[nH]cn1",
    "melting point": "69 to 71 °C"
  },
  {
    "MOL": "NC(=O)C(=O)Nc1nc(-c2cc(-c3ccccc3)on2)cs1",
    "melting point": "246 to 247 °C"
  },
  {
    "MOL": "CC(C)n1c(=O)n(C(=O)NCC2CCN(CC3(C(=O)O)CCCC3)CC2)c2ccccc21",
    "melting point": "165 °C"
  }
]

// Input: Cc1cc(-c2c(F)cc3c(=O)c(C(=O)O)cn4c3c2OC[C@@H]4C)cc(C)n1 . Output its melting point only. 305 to 308 °C

// Input: O=C1C=C(O)C(=O)c2cc(Br)ccc21 . Output its melting point only. 197 °C

// Input: Cc1cc(S(N)(=O)=O)ccc1N1CN(c2ccccc2)CC1=O . Output its melting point only. 206 to 210 °C

// Input: O=C(Nc1ccc(C(=O)N2CCc3cn[nH]c3-c3sccc32)cc1)c1ccc(F)cc1Cl . Output its melting point only. 258 to 266 °C

// Input: Nc1nc2c(sc(=O)n2Cc2ccc(Cl)cc2)c(=O)[nH]1 . Output its melting point only. > 320 °C

// Input: CN(C)c1ccc(/C=C/c2c(F)cccc2Cl)cc1 . Output its melting point only. 42 to 44 °C

// Input: CC(=O)Oc1cc([N+](=O)[O-])cc2c1OC(C)(C)C2 . Output its melting point only. 142 to 143 °C

====

QUANTITY NAME: melting point

Field: example entries. Status: answers known.
[
  {
    "COMPOUND": "CCOC(=O)N(C)CC1CN(c2c(F)cc3c(=O)c(C(=O)O)cn(C4CC4)c3c2F)CCO1 (stereo not given)",
    "melting point": "128 to 131 °C"
  },
  {
    "COMPOUND": "O=CNc1cccc2c1SC1=NCCN12",
    "melting point": "217 °C"
  },
  {
    "COMPOUND": "CCc1nn(Cc2ccccn2)c2c(=O)[nH]c(-c3cc(S(C)(=O)=O)ccc3OCC(C)C)nc12",
    "melting point": "223 to 225 °C"
  },
  {
    "COMPOUND": "CCOC(=O)c1cn2c(cc(OC)c3cc(OC)c(OC)cc32)n1",
    "melting point": "195 to 197 °C"
  },
  {
    "COMPOUND": "CCCCCCCCCCCCNC1=NC(N2CCOCC2)=NCN1",
    "melting point": "117 to 118 °C"
  },
  {
    "COMPOUND": "Cn1ccnc1CC(O)C(F)(F)F (stereo not given)",
    "melting point": "146 to 148 °C"
  },
  {
    "COMPOUND": "Cc1ccc(C(=O)Oc2ccc(C(CN(C)C)C3(O)CCCCC3)cc2)cc1 (stereo not given)",
    "melting point": "159 to 162 °C"
  },
  {
    "COMPOUND": "CON=C1C(C)(C)c2cc3nc(SCc4ncc(C)c(OC)c4C)[nH]c3cc2C1(C)C",
    "melting point": "110 to 112 °C"
  },
  {
    "COMPOUND": "O=c1ccc2c(Br)nccc2[nH]1",
    "melting point": "272 to 274 °C"
  }
]

# next compound below
// Input: Cc1nc2c(N)nc3ccccc3c2n1Cc1cc(-c2ccc(F)cc2)no1 . Output its melting point only. 294 to 296 °C

====

Listing of recorded melting point by entry.

// Input: Nc1ncnc2c1c(Cl)cn2COC(O)CCO (stereo unspecified) . Output its melting point only. 175 to 176 °C

====

Listing of recorded melting point by entry.

Field: example entries. Status: answers known.
[
  {
    "COMPOUND": "O=C(c1ccc([N+](=O)[O-])cc1)N1CCCc2ccccc21",
    "melting point": "86 to 88 °C"
  },
  {
    "COMPOUND": "CC(=O)NC(C#N)NC(=O)c1cc(Cl)cc(Cl)c1 (stereo not given)",
    "melting point": "227 to 228 °C"
  },
  {
    "COMPOUND": "O=C(CC(O)=S)c1ccccc1",
    "melting point": "103 to 105 °C"
  }
]

// Input: Cc1ccc(NCc2ccc(C(=O)Nc3ccccc3NC(=O)OC(C)(C)C)cc2)cc1Nc1nccc(-c2cccnc2)n1 . Output its melting point only. 125 °C

// Input: COc1ccc2oc(=O)c(-c3ccccc3)c(OCCN3CCOCC3)c2c1 . Output its melting point only. 118 °C

// Input: CCOC(=O)c1cc2cc[nH]c2cc1N . Output its melting point only. > 250 °C

// Input: NCC(O)c1nn(Cc2ccccc2)c2ccccc12 (stereo not given) . Output its melting point only. 126 °C

// Input: CCOC(=Nc1nc(C)cc(OC)n1)NS(=O)(=O)c1ccccc1OC(F)F . Output its melting point only. 131 to 133 °C

// Input: CC(C)(c1ccccc1)N1CC=C(c2ccccc2)C1=O . Output its melting point only. 85 to 86 °C

// Input: COc1nc2cc(Cl)ccc2nc1N1CCN(C)CC1 . Output its melting point only. 99.9 to 102 °C

// Input: O=C1NCC(Cc2cccc(Cl)c2)O1 (stereo not given) . Output its melting point only. 113 to 114 °C

// Input: COCC[C@H]1CN(c2cc(C)cc3c2C=Nc2ccccc2N3)CCN1C . Output its melting point only. 100 to 108 °C

// Input: O=C(Nc1ccc(Oc2cncc(Cl)c2)nc1)c1ccccc1C(c1ccc(O)cc1)c1ccc(O)cc1 . Output its melting point only. 122 to 125 °C

// Input: CCC1(C)CC(=O)C(C(=O)Nc2ccc(Cl)c(Cl)c2)C(=O)C1 (stereo not given) . Output its melting point only. 74 to 75 °C

// Input: CC(C)c1cccc(C(C)C)c1NC(=O)NCCN1CCN(CCSc2nc3ccccc3s2)CC1 . Output its melting point only. 147 to 149 °C

// Input: O=S(CCc1ccccc1)c1nc2cnccc2[nH]1 (stereo not given) . Output its melting point only. 171 to 174 °C

// Input: COc1ccc(CNc2nc(SC)ncc2CO)cc1Cl . Output its melting point only. 159 to 160 °C

// Input: C#Cc1cccc(Nc2ncnc3ccc(S(=O)(=O)n4ccc(C=CC(=O)O)c4)cc23)c1 . Output its melting point only. 286 to 289 °C

// Input: CC(C)(C)c1ccc([C@@H]2C[C@H]3C=C(c4c[nH]c(-c5ccc(F)c(F)c5)c4-c4ccncc4)CCN3C2)cc1 . Output its melting point only. 218 to 220 °C

// Input: Cc1cc(C=O)c(OCCCCOc2c(C=O)cc(C)cc2C=O)c(C=O)c1 . Output its melting point only. 205 °C

// Input: CCC#CCOc1cc2c(cc1C=O)C(C)(C)CCC2(C)C . Output its melting point only. 90 to 91 °C

// Input: CCCC=Cc1c(CC)nc(CC)c(CO)c1-c1ccccc1 . Output its melting point only. 74 to 76 °C

// Input: O=C(O)CON=CCBr . Output its melting point only. 56 to 58 °C

====

QUANTITY NAME: melting point

Field: example entries. Status: answers known.
[
  {
    "COMPOUND": "CC(C)(C)OC(=O)c1ccccc1CNC(=O)C1Cc2ccccc2N1S(=O)(=O)c1ccc(-c2cccc(C(F)(F)F)c2)cc1 (centres undefined)",
    "VALUE OBSERVED": "68 °C"
  },
  {
    "COMPOUND": "CC(=O)OC1CCC2(C)C(=CCC3C2CCC2(C)C3CC(OC(C)=O)C2OC(C)=O)C1 (centres undefined)",
    "VALUE OBSERVED": "127 to 129 °C"
  },
  {
    "COMPOUND": "CC(=O)OC(c1nc2c(C(F)(F)F)cccc2c(O)c1C(=O)Nc1ccccn1)C(C)C (centres undefined)",
    "VALUE OBSERVED": "230 °C"
  }
]

// Input: Cn1nc(-c2nc(OCC(N)=O)c(Cl)cc2F)c(Cl)c1OC(F)F . Output its melting point only. 178 to 180 °C

// Input: Cn1nnc2cccc(C=O)c21 . Output its melting point only. 126 °C

// Input: c1ccc2c3ccocc-3nc2c1 . Output its melting point only. 109 to 111 °C

// Input: CC(C)(C)OC(=O)N1CCN(c2cc(Cl)ccc2NC(=O)c2ccnc(Cl)c2)CC1 . Output its melting point only. 185 to 189 °C

// Input: CSc1nc(Cl)cc2nncn12 . Output its melting point only. 164 to 165 °C

// Input: C=C1CCc2sccc2C1=O . Output its melting point only. 47 to 49 °C

// Input: Cc1ccccc1C(=O)Nc1ccc(C(=O)N2CCCC(CN)c3ccccc32)cc1 (centres undefined) . Output its melting point only. 233 to 235 °C

// Input: CCON=Cc1ccccc1OCc1ccccc1C(=COC)C(=O)OC . Output its melting point only. 86 to 88 °C

// Input: CC(C(=O)OCc1ccccc1)c1cccc(NC(=O)NCC(=O)N2[C@@H](c3ccccc3)CC[C@H]2C(=O)OC(C)(C)C)c1 (some centres undefined) . Output its melting point only. 75 °C

// Input: CC[C@H](C)[C@H](NC(=O)[C@H](C)N(C(=O)OC(C)(C)C)C1CCCCC1)C(=O)N[C@@H](Cc1ccc(C(C)(C)C)cc1)[C@@H](O)[C@@H](O)CC(C)C . Output its melting point only. 171 to 172 °C

// Input: O=C(O)Cc1cc(Cc2cccc(Oc3ccccc3)c2)ccc1Nc1c(Cl)cccc1Cl . Output its melting point only. 116 to 117 °C

// Input: Cc1ccc(S(=O)(=O)N2CCC(C#N)(c3ccc(Cl)cc3Cl)CC2)cc1 . Output its melting point only. 145 °C

// Input: Cc1c(NC(=O)CC(C)(C)C)cc2c(c1C)OC(C)(C)C2=O . Output its melting point only. 175 to 176 °C

// Input: CC(C)C1(C)N=C(c2ncc(C3OCCO3)cc2C(=O)O)NC1=O (centres undefined) . Output its melting point only. 156 °C

// Input: NCC1Cc2cc3c(cc2O1)CCCC3 (centres undefined) . Output its melting point only. > 225 °C

// Input: c1ccc(COC2COC(c3ccco3)OC2)cc1 (centres undefined) . Output its melting point only. 50 to 52 °C

// Input: O=C(Nc1cccc(C(F)(F)F)c1F)c1ccccc1NCc1ccc(=O)[nH]c1 . Output its melting point only. 185 to 186 °C
